target: FGFR3 (Homo sapiens, UniProt P22607); test: FGFR3 domain specificity of binding
Sequence (P22607 23-806): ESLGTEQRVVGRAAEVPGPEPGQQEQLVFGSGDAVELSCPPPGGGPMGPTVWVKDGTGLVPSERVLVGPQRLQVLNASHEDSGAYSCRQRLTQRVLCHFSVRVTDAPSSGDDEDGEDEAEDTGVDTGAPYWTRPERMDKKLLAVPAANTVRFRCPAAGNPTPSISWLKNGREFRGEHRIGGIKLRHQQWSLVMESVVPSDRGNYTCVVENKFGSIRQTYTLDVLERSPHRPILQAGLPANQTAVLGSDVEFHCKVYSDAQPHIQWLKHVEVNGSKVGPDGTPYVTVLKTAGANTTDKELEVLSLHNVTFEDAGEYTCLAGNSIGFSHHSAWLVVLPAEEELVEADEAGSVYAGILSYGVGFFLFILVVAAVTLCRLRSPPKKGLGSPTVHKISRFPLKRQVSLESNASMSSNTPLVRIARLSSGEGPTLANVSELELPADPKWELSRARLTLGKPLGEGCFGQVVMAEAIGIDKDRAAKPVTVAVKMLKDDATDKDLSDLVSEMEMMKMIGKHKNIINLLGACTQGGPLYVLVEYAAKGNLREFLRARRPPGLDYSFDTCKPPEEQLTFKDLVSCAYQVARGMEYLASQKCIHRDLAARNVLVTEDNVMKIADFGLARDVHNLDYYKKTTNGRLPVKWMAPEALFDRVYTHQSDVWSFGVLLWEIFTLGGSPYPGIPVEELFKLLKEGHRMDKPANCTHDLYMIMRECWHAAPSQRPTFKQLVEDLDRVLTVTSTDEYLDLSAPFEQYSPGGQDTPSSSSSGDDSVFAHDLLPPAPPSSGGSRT
MEASURED_ATTRIBUTE: FGFR3 Domain Specificity

* PRO-002: HuCAL anti-FGFR3 clone; VH-CDR3 SEQ ID NO:2, VL-CDR3 SEQ ID NO:11 (antibody, V domains shown) VH: QVQLVQSGAEVKKPGASVKVSCKASGYTFTSYYMHWVRQAPGQGLEWMGWINPNSGGTNYAQKFQGRVTMTRDTSISTAYMELSSLRSEDTAVYYCARDFLGYEFDYWGQGTLVTVSS VL: DIELTQPPSVSVAPGQTARISCSGDALGDKYASWYQQKPGQAPVLVIYDDSDRPSGIPERFSGSNSGNTATLTISGTQAEDEADYYCQSYDYSADYVFGGGTKLTVLGQ | 2
* PRO-001: human anti-FGFR3 Fab from HuCAL library; VH-CDR3 SEQ ID NO:1, VL-CDR3 SEQ ID NO:10; VH SEQ ID NO:19, VL SEQ ID NO:28 (antibody, V domains shown) VH: QVQLQQSGPGLVKPSQTLSLTCAISGDSVSSNSAAWNWIRQSPGRGLEWLGRTYYRSKWYNDYAVSVKSRITINPDTSKNQFSLQLNSVTPEDTAVYYCARSYYPDFDYWGQGTLVTVSS VL: DIELTQPPSVSVAPGQTARISCSGDALGDKYASWYQQKPGQAPVLVIYDDSDRPSGIPERFSGSNSGNTATLTISGTQAEDEADYYCQSYDGPDLWVFGGGTKLTVLGQ | 2
